- target-desc: T1, TO-ZF (thiazole orange-GR zinc finger conjugate) (UniProt P06536 SEQ:1-28)
- T1 chain: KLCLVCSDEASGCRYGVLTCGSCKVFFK
- measurement-protocol: TO fluorescence titration; 20 mM Tris pH 7.9, 30 mM NaCl, 20 mM KCl, 1 mM MgCl2, 5% glycerol, ZnCl2
- assay-context: protein: synthetic; tags: thiazole orange on Lys epsilon-amine (first residue coupled to resin); synthetic solid-phase peptide (text states 29 aa, listing 28 aa), Zn-loaded
observable: Kd (nM)
One number for each entry, in nM.

Which Kd reading was recorded for the binder GRE1 (dsDNA) DNA 1: TCATACCACTAACTGTTCTATCA DNA 2: TGATAGAACAGTTAGTGGTATGA ?
25

The reported measurements were obtained from patent US6348317B1.
